target: T1, human serum albumin (human, UniProt P02768 25-609); experiment: SPR Biacore 8K+, HSA amine-coupled on C1 chip, ISVD analyte, 1:1 fit
T1 construct: Immobilised by amine coupling on a C1 chip; also called HSA
T1 sequence (P02768 25-609 limits assumed): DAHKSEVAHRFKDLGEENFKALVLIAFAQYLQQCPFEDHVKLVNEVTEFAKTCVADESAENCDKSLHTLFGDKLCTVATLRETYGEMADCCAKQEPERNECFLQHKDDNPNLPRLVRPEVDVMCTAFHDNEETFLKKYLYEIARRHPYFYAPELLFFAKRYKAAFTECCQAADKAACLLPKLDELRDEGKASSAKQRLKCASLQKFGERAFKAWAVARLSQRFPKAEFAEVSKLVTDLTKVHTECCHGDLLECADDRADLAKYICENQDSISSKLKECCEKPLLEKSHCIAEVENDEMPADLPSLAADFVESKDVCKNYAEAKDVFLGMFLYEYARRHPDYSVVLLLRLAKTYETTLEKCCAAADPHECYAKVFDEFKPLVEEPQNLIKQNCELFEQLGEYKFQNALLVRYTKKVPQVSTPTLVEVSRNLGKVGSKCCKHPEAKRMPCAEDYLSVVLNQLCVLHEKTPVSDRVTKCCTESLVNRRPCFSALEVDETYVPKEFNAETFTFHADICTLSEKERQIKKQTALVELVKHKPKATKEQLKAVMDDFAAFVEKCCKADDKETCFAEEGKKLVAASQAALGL
kon: recorded values
Just the number in M⁻¹ s⁻¹, nothing appended.

Complete the entry with kon for T028501815 (VHH, K75R vs precursor T028501805; also called HSA006A06(K75R, K83R)) VHH: EVQLVESGGGVVQPGGSLRLSCAASGFTFRSFGMSWVRQAPGKGPEWVSSISGSGSDTLYADSVKGRFTISRDNSRNTLYLQMNSLRPEDTALYYCTIGGSLSRSSQGTLVTVSS
860000

Respond only with kon recorded for T028501834 (VHH, K64R vs precursor T028501805; also called HSA006A06(K64R, K83R)) VHH: EVQLVESGGGVVQPGGSLRLSCAASGFTFRSFGMSWVRQAPGKGPEWVSSISGSGSDTLYADSVRGRFTISRDNSKNTLYLQMNSLRPEDTALYYCTIGGSLSRSSQGTLVTVSS
1.01e+06

Tell us which kon value is on record for T028501811 (VHH, K64Q vs precursor T028501805; also called HSA006A06(K64Q, K83R)) VHH: EVQLVESGGGVVQPGGSLRLSCAASGFTFRSFGMSWVRQAPGKGPEWVSSISGSGSDTLYADSVQGRFTISRDNSKNTLYLQMNSLRPEDTALYYCTIGGSLSRSSQGTLVTVSS
587000

Return value of kon for input T028501816 (VHH, K75A vs precursor T028501805; also called HSA006A06(K75A, K83R)) VHH: EVQLVESGGGVVQPGGSLRLSCAASGFTFRSFGMSWVRQAPGKGPEWVSSISGSGSDTLYADSVKGRFTISRDNSANTLYLQMNSLRPEDTALYYCTIGGSLSRSSQGTLVTVSS , no commentary.
799000

Retrieve kon measured for T028501836 (VHH) VHH: EVQLVESGGGVVQPGGSLRLSCAASGFTFRSFGMSWVRQAPGKGPEWVSSISGSGSDTLYADSVKGRFTISRDNSHNTLYLQMNSLRPEDTALYYCTIGGSLSRSSQGTLVTVSS and print it.
839000

Please report kon for the following binder: T028501833 (VHH, K43R vs precursor T028501805; also called HSA006A06(K43R, K83R)) VHH: EVQLVESGGGVVQPGGSLRLSCAASGFTFRSFGMSWVRQAPGRGPEWVSSISGSGSDTLYADSVKGRFTISRDNSKNTLYLQMNSLRPEDTALYYCTIGGSLSRSSQGTLVTVSS
703000

Return kon for the following binder: T028501807 (VHH, K43Q vs precursor T028501805; also called HSA006A06(K43Q, K83R)) VHH: EVQLVESGGGVVQPGGSLRLSCAASGFTFRSFGMSWVRQAPGQGPEWVSSISGSGSDTLYADSVKGRFTISRDNSKNTLYLQMNSLRPEDTALYYCTIGGSLSRSSQGTLVTVSS
677000

Continuing:
Given T028501812 (VHH, K64H vs precursor T028501805; also called HSA006A06(K64H, K83R)) VHH: EVQLVESGGGVVQPGGSLRLSCAASGFTFRSFGMSWVRQAPGKGPEWVSSISGSGSDTLYADSVHGRFTISRDNSKNTLYLQMNSLRPEDTALYYCTIGGSLSRSSQGTLVTVSS , respond with its kon.
590000
